Assay: Selectivity index, ratio of CTD50 for MDCK cells to ED50 for influenza virus A/California/07/09 (H1N1) pdm09
Assay type: toxicity, cell-based
Conditions: dog, read-out: Selectivity Index

| smi | selectivity ratio |
| --- | --- |
| CC[N+](C)(CC)CCN/C(C)=C1\C(=O)C=C2Oc3c(C(C)=O)c(O)c(C)c(O)c3[C@]2(C)C1=O | 2.7 |
| CC(=O)c1c(O)c(C)c(O)c2c1OC1=Cc3c(c(C)nn3-c3ccccc3)[C@@H](O)[C@]12C | 6.8 |
| CC(=O)c1c(O)c(C)c(O)c2c1OC1=CC(=O)/C(=C(/C)Nc3cccc(Br)c3)C(=O)[C@]12C | 10 |
